So I've got a bunch of compounds here, and I need their pIC50 values.
molecular target: SmTGR WT (Schistosoma mansoni, UniProt Q962Y6); assay: biochemical; format: biochemical
One number for each entry, as −log10 of the molar value.

Compound: Oc1ccc2ccccc2c1CN1CCOCC1 [Compound 1, 1-(Morpholin-4-ylmethyl)-2-naphthol]
Readout name: pIC50
Reading: 6.21

Proceed to the following item.
Ask | Reported pIC50 for SmTGR WT (Schistosoma mansoni, UniProt Q962Y6), given CN(C)Cc1c(O)ccc2ccccc12 [Compound 4, 1-[(Dimethylamino)methyl]-2-naphthol] ?
Reply | 4.95

====

Biological target: human GR (Homo sapiens, UniProt P00390)
Sequence (P00390 1-479 isoform P00390-2): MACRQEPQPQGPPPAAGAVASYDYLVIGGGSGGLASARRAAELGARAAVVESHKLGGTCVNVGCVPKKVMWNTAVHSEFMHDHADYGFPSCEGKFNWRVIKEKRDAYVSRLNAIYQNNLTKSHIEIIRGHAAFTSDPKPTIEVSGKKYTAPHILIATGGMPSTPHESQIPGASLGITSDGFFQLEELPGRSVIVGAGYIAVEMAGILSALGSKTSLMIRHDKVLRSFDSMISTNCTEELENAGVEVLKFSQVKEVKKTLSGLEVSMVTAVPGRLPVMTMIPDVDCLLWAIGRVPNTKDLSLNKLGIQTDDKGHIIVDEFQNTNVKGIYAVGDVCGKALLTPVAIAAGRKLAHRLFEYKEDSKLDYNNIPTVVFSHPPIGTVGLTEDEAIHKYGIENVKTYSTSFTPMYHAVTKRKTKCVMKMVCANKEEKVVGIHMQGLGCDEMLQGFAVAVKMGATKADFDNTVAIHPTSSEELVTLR
Readout name: IC50 (µM)
Answers are plain numbers, in µM.

For every item in the list below, what is its measured IC50?
1. CN(C)Cc1c(O)ccc2ccccc12 [Compound 4, 1-[(Dimethylamino)methyl]-2-naphthol]
2. Oc1ccc2ccccc2c1CN1CCOCC1 [Compound 1, 1-(Morpholin-4-ylmethyl)-2-naphthol]

Reply |
[1830, 71]

====

molecular target: SmTGR WT (Schistosoma mansoni, UniProt Q962Y6); experiment: biochemical; type: biochemical; conditions: read-out: IC50 (Table 2); SmTGR value repeated in Table 2
Readout name: IC50 (µM)
Answers are plain numbers, in µM.

Molecule: CN(Cc1ccccc1)Cc1c(O)ccc2ccccc12 [Compound 3]
IC50, µM: 0.84

# ---- query molecule ----
Ask | Tell me the measured IC50 of CCOC(=O)N1CCN(Cc2c(O)ccc3ccccc23)CC1 [Compound 2] , please.
Reply | 0.65

====

target: SmTGR WT (Schistosoma mansoni); assay: biochemical; type: biochemical; conditions: read-out: Apparent IC50 TGR; 15 min preincubation, NADPH present
Provide the reported IC50 of each item.
One number for each entry, in µM.

Smiles str: CN(Cc1ccccc1)Cc1c(O)ccc2ccccc12
System name: SmTGR WT (Schistosoma mansoni)
Unit string: µM
IC50: 0.84
--
Smiles str: CCOC(=O)N1CCN(Cc2c(O)ccc3ccccc23)CC1
System name: SmTGR WT (Schistosoma mansoni)
Unit string: µM
IC50: 0.65
--
Smiles str: Oc1ccc2ccccc2c1CN1CCCC1
System name: SmTGR WT (Schistosoma mansoni)
Unit string: µM
IC50: 28.8
--
Smiles str: Oc1ccc2ccccc2c1CN1CC=C(c2ccccc2)CC1
System name: SmTGR WT (Schistosoma mansoni)
Unit string: µM
IC50: 11.9

Let us examine a further case.
Ask | # lookup: IC50 of Oc1ccc2ccccc2c1CN1CCCCC1
Reply | 57.6

====

molecular target: SmTGR-E330A/D334A (Schistosoma mansoni, UniProt Q962Y6, D334A/E330A); assay: SmTGR-E330A/D334A mutant inhibition, DTNB assay
Readout name: pIC50
Give bare numbers, as −log10 of the molar value.

Ask | Hi! What's the reported pIC50 for CN(C)Cc1c(O)ccc2ccccc12 [Compound 4, 1-[(Dimethylamino)methyl]-2-naphthol] on SmTGR-E330A/D334A (Schistosoma mansoni, UniProt Q962Y6, D334A/E330A)?
Reply | 4.36
